Data origin, for the record: the supplement of paper PMC13207355

Entries and their surviving fraction values follow.
- Tested on: E31 (patient-derived glioblastoma stem cells of proneural subtype);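 note: nuclei counted by high-content imaging of Hoechst-stained cells in laminin-coated 384-well plates, relative to 0.1% DMSO vehicle wells, with staurosporine as cell-death control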
- assay comment: surviving fraction (nuclei count normalised to DMSO); higher = more cells surviving (less toxic)
- conditions: 333.3 nM; exposure time: 72 h
Counter-ions that a name gives are not always drawn.
Form: value (number only, do not type unit).

Please review the following examples before continuing.
compound="CCOC(=O)OC(C)OC1=C(C(=O)Nc2ccccn2)N(C)S(=O)(=O)c2ccccc21 (configuration not stated) [Ampiroxicam]" experimental_result=0.856
compound="CCCSc1ccc2[nH]c(NC(=O)OC)nc2c1 [Albendazole]" experimental_result=0.408
compound="CCc1c2c(nc3ccc(OC(=O)N4CCC(N5CCCCC5)CC4)cc13)-c1cc3c(c(=O)n1C2)COC(=O)[C@]3(O)CC [Irinotecan]" experimental_result=0.946
compound=COc1ccc2c(c1)CC[C@@H]1[C@@H]2CC[C@]2(C)[C@@H](NCCCCCCN3C(=O)CCC3=O)CC[C@@H]12 experimental_result=1.06
compound="Cc1cc(Nc2cc(N3CCN(C)CC3)nc(Sc3ccc(NC(=O)C4CC4)cc3)n2)n[nH]1 [Tozasertib]" experimental_result=0.404

surviving fraction on E31 for O=C1CC[C@@H](C(=O)N2CSC[C@H]2C(=O)O)N1 [Pidotimod] is 0.994

surviving fraction on E31 for CC[C@H]1CN2CCc3cc(OC)c(OC)cc3[C@@H]2C[C@@H]1C[C@H]1NCCc2cc(OC)c(OC)cc21 [Emetine dihydrochloride hydrate] is 0.143

surviving fraction on E31 for Nc1ccc(-c2ccc3ncc4ccc(=O)n(-c5cccc(C(F)(F)F)c5)c4c3c2)cn1 [Torin2] is 0.26

surviving fraction on E31 for O=c1[nH]c(=O)n([C@H]2C[C@H](O)[C@@H](CO)O2)cc1I [Idoxuridine] is 0.725

surviving fraction on E31 for NC(=O)c1ccccc1 [Benzamide] is 0.968

surviving fraction on E31 for COc1c(N2CCNC(C)C2)c(F)cc2c(=O)c(C(=O)O)cn(C3CC3)c12 (configuration not stated) [Gatifloxacin] is 1.01

surviving fraction on E31 for Clc1ccc(COC(Cn2ccnc2)c2ccc(Cl)cc2Cl)cc1 (configuration not stated) [Econazole nitrate] is 1.08

surviving fraction on E31 for CC(=O)CC(c1ccc([N+](=O)[O-])cc1)c1c(O)c2ccccc2oc1=O (configuration not stated) [Acenocoumarol] is 1.03

surviving fraction on E31 for Nc1nc(Cl)nc2c1ncn2[C@@H]1O[C@H](CO)[C@@H](O)[C@@H]1F [Clofarabine] is 0.142

surviving fraction on E31 for CCCCC(CC)CNC(=N)NC(=N)NCCCCCCNC(=N)NC(=N)NCC(CC)CCCC (configuration not stated) [Alexidine dihydrochloride] is 0.871

surviving fraction on E31 for Nc1ncnc2c1c(-c1ccc(Oc3ccccc3)cc1)cn2C1CCCC1 is 0.97

surviving fraction on E31 for Cc1[nH]nc(C(F)(F)F)c1Cc1sc2c(c1C(=O)N1C[C@](C)(O)CO1)c(=O)n(C)c(=O)n2C(C)C [AZD3965] is 1.08
